# ASSAY TARGET: Myc proto-oncogene protein (Homo sapiens) (UniProt P01106)
# Sequence (P01106 whole entry, looked up): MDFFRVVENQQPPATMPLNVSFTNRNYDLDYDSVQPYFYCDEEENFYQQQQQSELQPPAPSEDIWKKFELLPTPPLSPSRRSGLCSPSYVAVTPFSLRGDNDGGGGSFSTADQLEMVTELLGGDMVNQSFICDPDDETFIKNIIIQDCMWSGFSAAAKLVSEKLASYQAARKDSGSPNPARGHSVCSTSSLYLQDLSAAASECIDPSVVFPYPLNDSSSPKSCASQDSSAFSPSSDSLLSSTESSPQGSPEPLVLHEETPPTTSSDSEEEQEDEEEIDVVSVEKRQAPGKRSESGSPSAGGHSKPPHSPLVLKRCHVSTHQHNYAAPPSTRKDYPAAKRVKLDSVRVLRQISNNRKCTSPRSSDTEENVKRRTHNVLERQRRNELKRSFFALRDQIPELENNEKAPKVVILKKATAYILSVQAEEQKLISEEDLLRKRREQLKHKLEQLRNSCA
# EXPERIMENT DESCRIPTION: ATG_Myc_CIS: Attagene CIS-FACTORIAL HepG2 Assay for human Myelocytomatosis (Myc) Proto-Oncogene Transcription Factor (AID 2282990)
# ASSAY CONDITIONS: HepG2, Attagene cis-reporter transcription factor activity; actives raise or lower the signal
Calls of active or inactive are those of the source. The calls were made as follows: active = hit-call score of the fitted dose curve at least 0.9, where 1 is the maximum; inactive = score below 0.9.
VALUE TYPE: outcome

Look over these answered cases.
COMPOUND	outcome
Nc1ncn[nH]1	inactive
ClCCN1CCOCC1	inactive
C[C@]12CC[C@@H](O)C[C@@H]1CC[C@@H]1[C@@H]2CC[C@]2(C)C(=O)CC[C@@H]12	inactive
C=C(C)[C@@H]1CC=C(C=O)CC1	inactive
CCCCCCCCBr	inactive
CCOC(=O)c1ccccc1S(=O)(=O)NC(=O)Nc1nc(Cl)cc(OC)n1	inactive
Cc1cccc(OP(=O)(Oc2cccc(C)c2)Oc2cccc(C)c2)c1	inactive
CCOP(=S)(OCC)SCS(=O)(=O)C(C)(C)C	inactive
FC(F)OCC(F)(F)C(F)(F)F	inactive
Cc1cc(SCc2sc(-c3ccc(C(F)(F)F)c(F)c3)nc2C)ccc1OCC(=O)O	inactive

We now examine a further compound.
q: Could you tell me which outcome is on file for CC(C)[C@@H](Nc1ccc(C(F)(F)F)cc1Cl)C(=O)OC(C#N)c1cccc(Oc2ccccc2)c1 (some centres not stated) ?
a: inactive

These measurements were taken from PubChem BioAssay (EPA / NIEHS).
